test system: SK-MEL-5 melanoma; assay: NCI-60 one-dose screen, 48 h; details: 10 µM unless noted
This is part of a sample that, as a whole, favours compounds with a hit. Of some 83,000 tested, about 20% had one in any assay. Calls of active or inactive are those of the source. The calls were made as follows: active = growth percent below 10; inactive = the rest.
Lab note: assign the record to one of y = active, n = inactive

Some entries whose results are on file:
INSERT INTO assay_data (compound, class_name) VALUES
  ('O=Cc1ncc(-c2ccc(C(F)(F)F)cc2)c(NC2CCCCCC2)n1', 'y'),
  ('Cc1ccc(/C=C(/C#N)n2nnc3ncccc32)cc1', 'n'),
  ('Cc1ccc(S(=O)(=O)NCCN2c3nc4ccccc4cc3Sc3cc4ccccc4nc32)cc1', 'n'),
  ('CCOC(=O)c1sc(NC(=O)COc2ccc(/C=C3\CCc4cc(OC)ccc4C3=O)cc2)nc1C', 'n'),
  ('Cc1n(Cc2ccc3ccccc3c2)cc[n+]1Cc1ccc2ccccc2c1', 'y');

## Input Recorded test outcome, item O=C(O)CCNS(=O)(=O)c1ccc(-c2ccccc2)cc1
## Output n

## Input Recorded test outcome, item COc1ccc(OC)c(CCn2cncc2-c2c[nH]c3cc(Br)ccc23)c1
## Output y

## Input Recorded test outcome, item c1ccc(-c2n(Cc3ccc4ccccc4c3)cc[n+]2Cc2ccc3ccccc3c2)cc1
## Output y

## Input Recorded test outcome, item CNNc1ncnc2c1cnn2-c1ccc(S(N)(=O)=O)cc1
## Output n

## Input Recorded test outcome, item CN(C)CCC(=O)Nc1ccc(-n2cc(-c3cccc(NC(=S)Nc4cccc(-c5cn(-c6ccc(NC(=O)CCN(C)C)cc6)nn5)c4)c3)nn2)cc1
## Output n
